TEST CONDITIONS: in water, 298.15 K
ASSAY READOUT: solubility (mole fraction)

SMILES ENTRY	RESULT
O=C([O-])c1cccc(S(=O)(=O)O)c1.[Na+]	0.0372
